Provide the recorded pKd for the entries that follow.
# STUDY_TARGET: AmtB–GlnK complex (Escherichia coli)
# Construct: pelB signal peptide (N, cleaved yes); 10x His-tag (N, cleaved yes); made in house; host or cells: AmtB: Escherichia coli C41(DE3), pET15b; stGlnK: Escherichia coli ArcticExpress (DE3) RIL, pET28b
# Sequence (P0AC55 whole entry Y51F, one chain of several): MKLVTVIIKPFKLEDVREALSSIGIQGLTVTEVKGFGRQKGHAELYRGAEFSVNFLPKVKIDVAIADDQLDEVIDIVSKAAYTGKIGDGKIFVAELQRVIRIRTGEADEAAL
# ASSAY_SUMMARY: Native MS lipid titration, lipid binding to AmtB–GlnK (equilibrium-coupled binding model)
# PROTOCOL_CONDITIONS: KD,AGL3, third lipid binding to AmtB–GlnK, 50 µM ADP, 298 K
// field semantics: pKd = negative decimal log of concentration (mol/L)

For `CCCCCCCC/C=C\CCCCCCCC(=O)O[C@H](COC(=O)CCCCCCCCCCCCCCC)COP(=O)(O)O` , what is its reported pKd?
4.58

For `CCCCCCCC/C=C\CCCCCCCC(=O)O[C@H](COC(=O)CCCCCCCCCCCCCCC)COP(=O)(O)OC[C@H](N)C(=O)O` , what is its reported pKd?
4.57

For CCCCCCCCCCCCCCCC(=O)OC[C@H](COP(=O)(O)OCC(O)CO)OC(=O)CCCCCCCCCCCCCCC (stereo partly shown) , what is its reported pKd?
4.27

For `CCCCCCCC/C=C\CCCCCCCC(=O)O[C@H](COC(=O)CCCCCCCCCCCCCCC)COP(=O)([O-])OCC[N+](C)(C)C` , what is its reported pKd?
4.23

For `CCCCCCCC/C=C\CCCCCCCC(=O)O[C@H](COC(=O)CCCCCCCCCCCCCCC)COP(=O)(O)OCCN` , what is its reported pKd?
4.32

For `CCCCCCCC/C=C\CCCCCCCC(=O)O[C@H](COC(=O)CCCCCCCCCCCCCCCCC)COP(=O)(O)OCCN` , what is its reported pKd?
4.34

For CCCCCCCCCCCC(=O)OC[C@H](COP(=O)(O)OCC(O)CO)OC(=O)CCCCCCCCCCC (stereo partly shown) , what is its reported pKd?
4.54

---

# STUDY_TARGET: AmtB (Escherichia coli)
# Construct: pelB signal peptide (N, cleaved yes); 10x His-tag (N, cleaved yes); made in house; host or cells: Escherichia coli C41(DE3), pET15b
# Sequence (P69681 23-428): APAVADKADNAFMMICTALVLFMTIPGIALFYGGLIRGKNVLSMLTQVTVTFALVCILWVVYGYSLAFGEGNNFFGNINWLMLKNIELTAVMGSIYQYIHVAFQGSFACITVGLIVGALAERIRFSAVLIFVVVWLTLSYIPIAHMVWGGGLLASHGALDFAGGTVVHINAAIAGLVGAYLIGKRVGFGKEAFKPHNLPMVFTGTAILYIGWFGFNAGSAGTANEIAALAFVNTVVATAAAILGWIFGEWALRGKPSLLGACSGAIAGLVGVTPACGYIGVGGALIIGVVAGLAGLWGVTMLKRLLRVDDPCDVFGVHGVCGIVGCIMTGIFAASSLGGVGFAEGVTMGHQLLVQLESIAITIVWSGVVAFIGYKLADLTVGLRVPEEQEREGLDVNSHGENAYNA
# ASSAY_SUMMARY: Native MS lipid titration, lipid binding to AmtB (equilibrium-coupled binding model)
# PROTOCOL_CONDITIONS: KD,AL3, third lipid binding to AmtB, 50 µM ADP, 298 K
QUANTITY_KIND: pKd
// field semantics: pKd = negative decimal log of concentration (mol/L)

For CCCCCCCC/C=C\CCCCCCCC(=O)O[C@H](COC(=O)CCCCCCCCCCCCCCC)COP(=O)(O)OCC(O)CO (stereo partly shown) , what is its reported pKd?
4.25

For `CCCCCCCC/C=C\CCCCCCCC(=O)O[C@H](COC(=O)CCCCCCCCCCCCCCC)COP(=O)(O)O` , what is its reported pKd?
4.61

For CCCCCCCCCCCCCCCC(=O)OC[C@H](COP(=O)(O)OCC(O)CO)OC(=O)CCCCCCCCCCCCCCC (stereo partly shown) , what is its reported pKd?
4.00

For `CCCCCCCC/C=C\CCCCCCCC(=O)O[C@H](COC(=O)CCCCCCCCCCCCCCCCC)COP(=O)(O)OCCN` , what is its reported pKd?
4.13

For CCCCCCCCCCCCCC(=O)OC[C@H](COP(=O)(O)OCC(O)CO)OC(=O)CCCCCCCCCCCCC (stereo partly shown) , what is its reported pKd?
4.69

For `CCCCCCCC/C=C\CCCCCCCC(=O)O[C@H](COC(=O)CCCCCCCCCCCCCCC)COP(=O)([O-])OCC[N+](C)(C)C` , what is its reported pKd?
3.98

For CCCCCCCCCCCC(=O)OC[C@H](COP(=O)(O)OCC(O)CO)OC(=O)CCCCCCCCCCC (stereo partly shown) , what is its reported pKd?
4.47
